Biological target: MTHFD2 recombinant human enzyme (Homo sapiens)
Sequence (P13995 36-350): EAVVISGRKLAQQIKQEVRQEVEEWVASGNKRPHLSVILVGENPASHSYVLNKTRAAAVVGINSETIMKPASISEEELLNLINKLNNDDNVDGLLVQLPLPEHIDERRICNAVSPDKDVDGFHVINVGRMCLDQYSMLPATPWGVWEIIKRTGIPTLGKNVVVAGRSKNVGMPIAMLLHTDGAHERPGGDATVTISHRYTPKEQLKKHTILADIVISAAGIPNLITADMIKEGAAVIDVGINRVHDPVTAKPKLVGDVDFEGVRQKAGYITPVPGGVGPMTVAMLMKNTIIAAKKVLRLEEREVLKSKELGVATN
Experiment: MTHFD2 inhibition assay (NAD(P)H-Glo luminescence)
Each item that follows carries a reported IC50.

Example compounds with recorded IC50:
Compound	IC50
CCOc1c(C(=O)NS(=O)(=O)N2CCCCC2)ccc(C(=O)N2CCc3c(c(=O)oc4c(C)c(N5CCN(C)[C@@H](COC)C5)cc(C)c34)C2)c1F [Example 197]	10 to 100 nM
COC[C@H]1CN(c2cc(C)c3c4c(c(=O)oc3c2C)CN(C(=O)c2ccc(C(=O)NS(=O)(=O)N3CC5CC5C3)c(OC3CC3)c2F)CC4)CCN1C (stereo partly drawn) [Example 207]	10 to 100 nM

Attention now shifts to the item below.
If you can, please state the reported IC50 value of COC[C@H]1CN(c2cc(C)c3c4c(c(=O)oc3c2C)CN(C(=O)c2ccc(C(=O)NS(=O)(=O)N3CCCC3)c(OC(F)F)c2F)CC4)CCN1C [Example 171] .
10 to 100 nM
